assayed-target: T1, recombinant human OX40L (extracellular domain, R&D Systems) (human, UniProt P23510 51-183)
T1 construct: also called hOX40L; rec. hOX40L
T1 sequence: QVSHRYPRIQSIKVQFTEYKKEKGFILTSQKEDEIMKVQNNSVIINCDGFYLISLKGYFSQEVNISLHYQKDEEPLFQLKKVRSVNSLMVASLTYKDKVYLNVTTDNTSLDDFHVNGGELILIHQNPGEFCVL
test-method-notes: SPR, second injection after competitor OX40L19D08
property-name: Binding Level sample 2 (RU)
Give the value in RU but do not write RU after it.

binder: OX40L18E09 (VHH, monovalent Nanobody from E. coli; not shown: C-terminal c-myc and His6 tag) VHH: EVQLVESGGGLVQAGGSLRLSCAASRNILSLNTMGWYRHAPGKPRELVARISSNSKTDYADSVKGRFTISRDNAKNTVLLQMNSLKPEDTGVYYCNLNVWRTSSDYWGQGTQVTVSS
Binding Level sample 2 (RU): 225

In the following, a different binder is considered.
Task item: State the recorded Binding Level sample 2 (RU) for this entry: OX40L19A07 (VHH, monovalent Nanobody from E. coli; not shown: C-terminal c-myc and His6 tag) VHH: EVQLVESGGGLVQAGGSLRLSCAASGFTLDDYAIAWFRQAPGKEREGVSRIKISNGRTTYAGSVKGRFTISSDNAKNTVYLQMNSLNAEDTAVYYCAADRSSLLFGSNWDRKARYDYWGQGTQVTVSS
Reply: 205
